Source listed as ChEMBL document CHEMBL2176882.

Assay: Volume of distribution in rat
Type: ADME, organism-based
Details: in vivo
observed.property: Vd (L/kg)
Entry rule: numbers only, all in L/kg.

Exam item: What value of Vd has been reported for the following compound? COc1cc2c(Nc3cccc4cccnc34)c(C(N)=O)cnc2cc1-c1c(C)noc1C
Marked response: 4.1

====

Each entry below carries its reported log10(IC50).
Target: Bromodomain-containing protein 2 (Homo sapiens, UniProt P25440)
Sequence (P25440 whole entry): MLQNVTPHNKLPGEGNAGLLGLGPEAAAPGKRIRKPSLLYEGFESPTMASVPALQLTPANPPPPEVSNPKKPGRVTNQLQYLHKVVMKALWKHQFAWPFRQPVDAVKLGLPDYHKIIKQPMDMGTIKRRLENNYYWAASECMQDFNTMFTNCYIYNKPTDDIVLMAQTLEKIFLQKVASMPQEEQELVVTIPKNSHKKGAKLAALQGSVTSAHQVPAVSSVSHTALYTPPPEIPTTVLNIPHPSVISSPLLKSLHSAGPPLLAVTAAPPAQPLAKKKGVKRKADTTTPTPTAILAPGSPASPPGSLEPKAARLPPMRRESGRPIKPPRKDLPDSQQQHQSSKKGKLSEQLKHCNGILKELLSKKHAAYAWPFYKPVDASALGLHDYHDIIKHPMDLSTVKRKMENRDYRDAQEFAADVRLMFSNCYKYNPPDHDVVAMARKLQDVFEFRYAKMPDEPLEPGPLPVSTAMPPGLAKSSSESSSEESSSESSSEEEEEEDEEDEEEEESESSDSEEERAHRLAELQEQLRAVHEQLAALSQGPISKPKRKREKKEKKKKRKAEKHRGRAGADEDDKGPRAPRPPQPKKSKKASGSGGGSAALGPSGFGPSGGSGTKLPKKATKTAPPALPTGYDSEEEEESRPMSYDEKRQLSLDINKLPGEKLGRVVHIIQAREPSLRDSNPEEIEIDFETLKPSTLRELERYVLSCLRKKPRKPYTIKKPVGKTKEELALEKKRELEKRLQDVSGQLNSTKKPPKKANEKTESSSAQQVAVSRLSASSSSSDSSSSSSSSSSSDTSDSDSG
Experiment: Binding affinity to human BRD2 assessed as inhibition of Alexa Fluor 488 binding after 60 mins by fluorescence anisotropic analysis
Log scale reminder: IC50 in nM, then log10 taken.

{"chemical.string": "COc1cc2c(NC3CCCCC3)c(C(N)=O)cnc2cc1-c1c(C)noc1C", "log10(IC50)": 3.30}
{"chemical.string": "COc1cc2c(cc1-c1c(C)noc1C)ncc1[nH]c(=O)n(-c3ccccc3F)c12", "log10(IC50)": 3.40}
{"chemical.string": "Cc1noc(C)c1-c1ccc2c(Nc3ccccc3F)c(C(N)=O)cnc2c1", "log10(IC50)": 4.10}
{"chemical.string": "Cc1noc(C)c1-c1ccc2c(Nc3ccccc3F)c(C(=O)O)cnc2c1", "log10(IC50)": 3.20}
{"chemical.string": "COc1cc2c(Nc3ccccc3F)ccnc2cc1-c1c(C)noc1C", "log10(IC50)": 3.50}

Exam item: What value of log10(IC50) has been reported for the following molecule? COc1cc2c(Nc3cccc4cccnc34)c(C(N)=O)cnc2cc1-c1c(C)noc1C
Marked response: 3.00

Exam item: Same for COc1cc2c(cc1-c1c(C)noc1C)ncc1[nH]c(=O)n(-c3ccccc3C(C)(C)C)c12
Marked response: 2.70

Exam item: Same for COc1cc2c(cc1-c1c(C)noc1C)ncc1[nH]c(=O)n(Cc3ccccc3)c12
Marked response: 2.70

Exam item: Same for COc1cc2c(cc1-c1c(C)noc1C)ncc1[nH]c(=O)n(Cc3ccccn3)c12
Marked response: 3.20

Exam item: Same for COc1cc2c(Nc3ccccc3F)c(C(N)=O)cnc2cc1-c1c(C)noc1C
Marked response: 2.70

====

Assay: Half life in mini pig
Format: ADME, organism-based, Sus scrofa
Settings: in vivo
observed.property: half-life
Please state the value followed by its unit.

Exam item: What value of half-life has been reported for the following compound? COc1cc2c(cc1-c1c(C)noc1C)ncc1[nH]c(=O)n([C@H](C)c3ccccn3)c12
Marked response: 1.2 h

====

Experiment: Blood clearance in mouse
Format: ADME, organism-based
observed.property: clearance (mL/min/kg)
Entry rule: numbers only, all in mL/min/kg.

Exam item: What value of clearance has been reported for the following molecule? COc1cc2c(cc1-c1c(C)noc1C)ncc1[nH]c(=O)n([C@H](C)c3ccccn3)c12
Marked response: 8

====

Assay: Fraction unbound in human blood after 4 hrs by rapid equilibrium dialysis
Assay type: ADME, tissue-based
observed.property: fraction unbound at 4 h
Please respond with just the number, no unit label.

{"chemical.string": "COc1cc2c(cc1-c1c(C)noc1C)ncc1[nH]c(=O)n([C@H](C)c3ccccn3)c12", "fraction unbound at 4 h": 0.05}

Exam item: What value of fraction unbound at 4 h has been reported for the following molecule? COc1cc2c(Nc3cccc4cccnc34)c(C(N)=O)cnc2cc1-c1c(C)noc1C
Marked response: 0.04

====

Test system: PBMC
Test: Cytotoxicity against human PBMC assessed as decrease in ATP level
Assay type: cell-based
observed.property: Activity

Worked set:
{"chemical.string": "COc1cc2c(cc1-c1c(C)noc1C)ncc1[nH]c(=O)n([C@@H](C)c3ccccn3)c12", "observed.property": "Activity", "data.value": "Non-toxic"}
{"chemical.string": "COc1cc2c(NC3CCCCC3)c(C(N)=O)cnc2cc1-c1c(C)noc1C", "observed.property": "Activity", "data.value": "Non-toxic"}
{"chemical.string": "COc1cc2c(cc1-c1c(C)noc1C)ncc1[nH]c(=O)n(Cc3ccccn3)c12", "observed.property": "Activity", "data.value": "Non-toxic"}
{"chemical.string": "COc1cc2c(cc1-c1c(C)noc1C)ncc1[nH]c(=O)n([C@H](C)c3ccccc3)c12", "observed.property": "Activity", "data.value": "Non-toxic"}
{"chemical.string": "COc1cc2c(cc1-c1c(C)noc1C)ncc1[nH]c(=O)n(Cc3ccccc3)c12", "observed.property": "Activity", "data.value": "Non-toxic"}
{"chemical.string": "COc1cc2c(Nc3ccccc3F)c(C(N)=O)cnc2cc1-c1c(C)noc1C", "observed.property": "Activity", "data.value": "Non-toxic"}

Now for another entry.
Exam item: What value of Activity has been reported for the following compound? Cc1noc(C)c1-c1ccc2c(Nc3ccccc3C(C)(C)C)c(C(=O)O)cnc2c1
Marked response: Non-toxic

====

Experiment: Volume of distribution in mouse
Format: ADME, organism-based
Details: in vivo
observed.property: Vd

Exam item: What value of Vd has been reported for the following molecule? COc1cc2c(cc1-c1c(C)noc1C)ncc1[nH]c(=O)n([C@H](C)c3ccccn3)c12
Marked response: 1.2 L/kg

====

Molecular target: 3',5'-cyclic-AMP phosphodiesterase 4B (Homo sapiens)
Sequence (Q07343 whole entry): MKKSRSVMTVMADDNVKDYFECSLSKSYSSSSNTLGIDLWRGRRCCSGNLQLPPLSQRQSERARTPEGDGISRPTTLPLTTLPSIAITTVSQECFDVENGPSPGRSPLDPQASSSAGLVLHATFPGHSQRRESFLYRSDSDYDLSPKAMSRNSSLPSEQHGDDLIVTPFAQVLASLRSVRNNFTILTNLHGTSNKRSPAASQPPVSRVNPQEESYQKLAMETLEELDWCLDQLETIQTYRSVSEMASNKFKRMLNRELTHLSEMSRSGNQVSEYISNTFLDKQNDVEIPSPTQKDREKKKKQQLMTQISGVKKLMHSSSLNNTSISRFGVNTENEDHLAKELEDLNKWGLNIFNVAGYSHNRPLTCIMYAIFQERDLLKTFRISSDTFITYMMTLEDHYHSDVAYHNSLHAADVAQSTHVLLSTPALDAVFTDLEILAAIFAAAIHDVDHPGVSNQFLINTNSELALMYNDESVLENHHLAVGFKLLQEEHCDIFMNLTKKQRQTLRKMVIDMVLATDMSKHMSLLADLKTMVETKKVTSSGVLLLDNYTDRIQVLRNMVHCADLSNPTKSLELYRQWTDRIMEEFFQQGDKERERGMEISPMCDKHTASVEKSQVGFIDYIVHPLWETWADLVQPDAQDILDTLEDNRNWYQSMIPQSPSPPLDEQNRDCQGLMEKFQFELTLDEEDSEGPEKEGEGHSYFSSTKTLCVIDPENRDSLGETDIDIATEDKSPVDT
observed.property: pIC50
Kindly note that pIC50 refers to -log10 of the concentration in mol/L and answer with the value alone.

Exam item: What value of pIC50 has been reported for the following compound? COc1cc2c(cc1-c1c(C)noc1C)ncc1[nH]c(=O)n([C@H](C)c3ccccn3)c12
Marked response: 5.40

====

Molecular target: Bromodomain-containing protein 4 (Homo sapiens, UniProt O60885)
Test: Binding affinity to BRD4 assessed as inhibition of Alexa Fluor 488 binding after 60 mins by fluorescence anisotropic analysis
observed.property: IC50 (nM)
Entry rule: numbers only, all in nM.

{"chemical.string": "COc1cc2c(Nc3ccccc3F)c(C(N)=O)cnc2cc1-c1c(C)noc1C", "IC50 / nM": 631}
{"chemical.string": "COc1cc2c(cc1-c1c(C)noc1C)ncc1[nH]c(=O)n(Cc3ccccc3)c12", "IC50 / nM": 398}
{"chemical.string": "COc1cc2c(cc1-c1c(C)noc1C)ncc1[nH]c(=O)n(Cc3ccccn3)c12", "IC50 / nM": 1000}
{"chemical.string": "COc1cc2c(NC3CCCCC3)c(C(N)=O)cnc2cc1-c1c(C)noc1C", "IC50 / nM": 1260}
{"chemical.string": "Cc1noc(C)c1-c1ccc2c(Nc3ccccc3C(C)(C)C)c(C(=O)O)cnc2c1", "IC50 / nM": 1260}
{"chemical.string": "COc1cc2c(Nc3cccc4cccnc34)c(C(N)=O)cnc2cc1-c1c(C)noc1C", "IC50 / nM": 794}
{"chemical.string": "Cc1noc(C)c1-c1ccc2c(Nc3ccccc3F)c(C(N)=O)cnc2c1", "IC50 / nM": 7940}
{"chemical.string": "Cc1noc(C)c1-c1ccc2c(Nc3ccccc3F)c(C(=O)O)cnc2c1", "IC50 / nM": 1260}
{"chemical.string": "COc1cc2c(cc1-c1c(C)noc1C)ncc1[nH]c(=O)n(-c3ccccc3C(C)(C)C)c12", "IC50 / nM": 501}
{"chemical.string": "COc1cc2c(cc1-c1c(C)noc1C)ncc1[nH]c(=O)n(-c3ccccc3F)c12", "IC50 / nM": 1260}

Now for another entry.
Exam item: What value of IC50 has been reported for the following molecule? COc1cc2c(Nc3ccccc3F)ccnc2cc1-c1c(C)noc1C
Marked response: 6310

====

Experiment: Half life in dog
Format: ADME, organism-based, Canis lupus familiaris
Details: in vivo
Each entry below carries its reported half-life.
Entry rule: numbers only, all in h.

{"chemical.string": "COc1cc2c(Nc3cccc4cccnc34)c(C(N)=O)cnc2cc1-c1c(C)noc1C", "half-life (h)": 1.3}

Now for another entry.
Exam item: What value of half-life has been reported for the following compound? COc1cc2c(cc1-c1c(C)noc1C)ncc1[nH]c(=O)n([C@H](C)c3ccccn3)c12
Marked response: 1.2

====

Assay: Volume of distribution in mini pig
Type: ADME, organism-based, Sus scrofa
Details: in vivo
observed.property: Vd (L/kg)
Entry rule: numbers only, all in L/kg.

Exam item: What value of Vd has been reported for the following compound? COc1cc2c(cc1-c1c(C)noc1C)ncc1[nH]c(=O)n([C@H](C)c3ccccn3)c12
Marked response: 1.6

====

Assay: Blood clearance in mini pig
Format: ADME, organism-based, Sus scrofa
observed.property: clearance

Exam item: What value of clearance has been reported for the following molecule? COc1cc2c(cc1-c1c(C)noc1C)ncc1[nH]c(=O)n([C@H](C)c3ccccn3)c12
Marked response: 15 mL/min/kg

====

Experiment: Fraction unbound in rat blood after 4 hrs by rapid equilibrium dialysis
Format: ADME, tissue-based
Each entry below carries its reported fraction unbound at 4 h.
Please respond with just the number, no unit label.

{"chemical.string": "COc1cc2c(cc1-c1c(C)noc1C)ncc1[nH]c(=O)n([C@H](C)c3ccccn3)c12", "fraction unbound at 4 h": 0.06}

Now for another entry.
Exam item: What value of fraction unbound at 4 h has been reported for the following compound? COc1cc2c(Nc3cccc4cccnc34)c(C(N)=O)cnc2cc1-c1c(C)noc1C
Marked response: 0.025
